Hi there, I'd appreciate the recorded inhibition for every entry that follows.
biological target: Metabotropic glutamate receptor 1 (Homo sapiens, UniProt Q13255); assay: Antagonist activity at mGluR1 (unknown origin) expressed in Chem-3 cells assessed as inhibition of glutamate-induced increased intracellular calcium ion level at 10 uM after 18 hrs by fluorescence-based FDSS6000 assay; assay type: functional, cell-based
Sequence (Q13255 19-1194 limits assumed): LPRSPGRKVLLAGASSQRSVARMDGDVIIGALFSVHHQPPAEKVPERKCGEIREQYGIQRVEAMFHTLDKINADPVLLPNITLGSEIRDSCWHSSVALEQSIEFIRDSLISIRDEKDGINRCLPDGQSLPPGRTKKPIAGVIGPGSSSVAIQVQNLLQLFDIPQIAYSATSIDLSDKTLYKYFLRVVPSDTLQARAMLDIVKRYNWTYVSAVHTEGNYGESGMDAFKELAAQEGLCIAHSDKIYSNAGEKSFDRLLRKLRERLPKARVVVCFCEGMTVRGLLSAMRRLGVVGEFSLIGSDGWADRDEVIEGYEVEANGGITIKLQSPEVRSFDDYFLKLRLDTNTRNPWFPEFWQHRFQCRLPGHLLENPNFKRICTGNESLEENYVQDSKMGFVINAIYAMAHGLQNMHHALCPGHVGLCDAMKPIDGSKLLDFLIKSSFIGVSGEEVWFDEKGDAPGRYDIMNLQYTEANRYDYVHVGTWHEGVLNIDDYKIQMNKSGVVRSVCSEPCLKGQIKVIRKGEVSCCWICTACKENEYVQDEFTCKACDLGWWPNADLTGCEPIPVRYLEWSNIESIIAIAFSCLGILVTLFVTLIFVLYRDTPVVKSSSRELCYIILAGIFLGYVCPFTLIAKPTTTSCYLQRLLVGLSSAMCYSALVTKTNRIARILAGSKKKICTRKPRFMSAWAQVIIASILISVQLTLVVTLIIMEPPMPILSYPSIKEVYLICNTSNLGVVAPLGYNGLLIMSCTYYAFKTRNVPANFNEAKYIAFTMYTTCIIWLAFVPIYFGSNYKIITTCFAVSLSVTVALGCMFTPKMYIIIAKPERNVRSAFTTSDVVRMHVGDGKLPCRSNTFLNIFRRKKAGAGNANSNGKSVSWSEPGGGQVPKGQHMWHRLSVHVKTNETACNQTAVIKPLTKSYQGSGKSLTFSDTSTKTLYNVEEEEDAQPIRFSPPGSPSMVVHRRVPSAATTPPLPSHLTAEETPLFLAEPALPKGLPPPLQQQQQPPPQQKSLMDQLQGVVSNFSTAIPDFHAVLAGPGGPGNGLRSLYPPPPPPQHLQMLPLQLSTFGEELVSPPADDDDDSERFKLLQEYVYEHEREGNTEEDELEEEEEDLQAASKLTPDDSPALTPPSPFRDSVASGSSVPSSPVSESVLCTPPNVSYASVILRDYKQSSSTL
Provide the reading as a plain figure in %.

Query: Report inhibition for `O=c1c2scc(-c3ccccc3)c2ncn1-c1ccccc1`
Response: 90.5

Query: Could you please provide reported inhibition for `COc1ccc(-n2cnc3c(-c4cccc(C)c4)csc3c2=O)cc1` ? Thanks!
Response: 89

Query: Name the recorded inhibition of the compound listed here: `COc1ccc(-n2cnc3c(-c4ccccc4C)csc3c2=O)cc1`
Response: 92.5

Query: Write down inhibition measured for item `C=Cc1cccc(-n2cnc3c(-c4ccccc4)csc3c2=O)c1`
Response: 92.3

Hey, just so you know, these numbers are from ChEMBL document CHEMBL3352565.
